TARGET_ENTITY: Cruzipain (Trypanosoma cruzi, UniProt P25779)
Sequence (P25779 whole entry): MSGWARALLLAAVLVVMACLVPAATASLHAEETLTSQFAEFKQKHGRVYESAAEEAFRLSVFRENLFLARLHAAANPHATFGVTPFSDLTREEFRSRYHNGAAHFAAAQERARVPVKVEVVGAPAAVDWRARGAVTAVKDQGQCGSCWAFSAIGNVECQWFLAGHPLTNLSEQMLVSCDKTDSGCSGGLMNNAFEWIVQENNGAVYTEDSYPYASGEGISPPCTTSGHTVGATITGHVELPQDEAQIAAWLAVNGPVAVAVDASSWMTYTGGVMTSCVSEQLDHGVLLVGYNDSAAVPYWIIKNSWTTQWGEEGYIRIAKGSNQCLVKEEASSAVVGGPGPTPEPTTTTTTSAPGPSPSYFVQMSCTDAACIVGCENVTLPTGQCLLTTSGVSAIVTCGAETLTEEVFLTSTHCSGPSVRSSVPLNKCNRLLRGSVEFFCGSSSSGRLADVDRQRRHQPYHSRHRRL
ASSAY_EXPLANATION: Inhibitory activity against the Trypanosoma cruzi cysteine protease cruzain
pIC50: −log10 of the molar value.
In this section we review reported pIC50 values for a set of molecules.

SMI	REPORTED_RELATION	pIC50
O=C1C(=O)N(c2ccccc2)c2ccccc21	<	5.00
COc1cccc(CN2C(=O)C(=O)c3cc(C)ccc32)c1	=	5.70
NC(=S)/N=N/c1c(O)[nH]c2ccc(Cl)cc12	=	4.68
O=C1C(=O)N(Cc2ccccc2)c2ccccc21	<	5.00
NC(=S)/N=N/c1c(O)[nH]c2ccc(I)cc12	=	5.05
O=C1C(=O)N(Cc2ccc(Cl)cc2)c2ccc(Cl)cc21	=	5.22
